# Experimental Target: Biotinylated KRAS G12C protein (Homo sapiens, UniProt P01116, C118S/C51S/C80L/G12C)
# Construct: 183 amino acids; biotin on K10
# Sequence (P01116 with tags, fused parts or gaps isoform P01116-2 G12C/C51S/C80L/C118S): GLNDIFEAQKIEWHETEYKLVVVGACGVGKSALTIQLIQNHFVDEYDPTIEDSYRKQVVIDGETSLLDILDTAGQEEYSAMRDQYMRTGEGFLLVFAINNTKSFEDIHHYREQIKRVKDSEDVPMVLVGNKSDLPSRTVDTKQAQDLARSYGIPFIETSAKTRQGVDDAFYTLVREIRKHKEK
# Assay Explanation: SOS-catalyzed nucleotide exchange assay
# Assay type: biochemical
# Condition Info: apparent potency; preincubation time of 60 minutes prior to addition of SOS
Quantity Measured: IC50 (nM)

Observe how each entry below is paired with its result.
INSERT INTO measurements (compound, recorded_number) VALUES
  ('C=CC(=O)N1CCN(c2cc(C(=O)N[C@H]3CNCC[C@H]3F)nc3c2CCN(c2cccc4cccc(C)c24)C3)C[C@@H]1CC#N', 26),
  ('C=CC(=O)N1CCN(c2cc(C(=O)NCC3(N)CCCCC3)nc3c2CCN(c2cccc4cccc(C)c24)C3)C[C@@H]1CC#N', 15),
  ('C=CC(=O)N1CCN(c2cc(C(=O)N[C@@H]3CCC[C@H]3N(C)C)nc3c2CCN(c2cccc4ccccc24)C3)CC1 (racemic)', 1590),
  ('C=CC(=O)N1CCN(c2cc(C(=O)N3CCC[C@@H]3CN3CCCC3)nc3c2CCN(c2cccc4cccc(C)c24)C3)CC1', 3770),
  ('C=CC(=O)N1CCN(c2cc(C(=O)NC(C)CN3CCC(C)(O)C3)nc3c2CCN(c2cccc4cccc(C)c24)C3)C[C@@H]1CC#N (single isomer, unassigned) [Compound 76]', 6.2),
  ('C=CC(=O)N1CCN(c2cc(C(=O)N3CCC[C@H]3CN3CCCC3)nc3c2CCN(c2cccc4cccc(C)c24)C3)CC1', 9590);

P. C=CC(=O)N1CCN(c2cc(C(=O)NC(C)CN3CCC(F)(F)C3)nc3c2CCN(c2cccc4cccc(C)c24)C3)C[C@@H]1CC#N (single isomer, unassigned) [Compound 72]
Q. C=CC(=O)N1CCN(c2cc(C(=O)NC3(CN4CCCCC4)CC3)nc3c2CCN(c2cccc4cccc(C)c24)C3)CC1
Request: I'd appreciate it if you could identify which of P and Q has the greater IC50. Respond with the label that goes with your answer.
Response: P

P. C=CC(=O)N1CCN(c2cc(C(=O)NCCN(C)C)nc3c2CCN(c2cccc4ccccc24)C3)C[C@@H]1CC#N
Q. C=CC(=O)N1CCN(c2cc(C(=O)NC[C@@H]3CC(F)(F)CN3)nc3c2CCN(c2cccc4cccc(C)c24)C3)C[C@@H]1CC#N
Request: I'd appreciate it if you could identify which of P and Q has the greater IC50. Respond with the label that goes with your answer.
Response: Q
(Q: 91 nM, P: 8.8 nM)

1. C=CC(=O)N1CCN(c2cc(C(=O)NCC3(N)CCOCC3)nc3c2CCN(c2cccc4cccc(C)c24)C3)C[C@@H]1CC#N
2. C=CC(=O)N1CCN(c2cc(C(=O)N[C@H](C)CN3CC(C)(O)C3)nc3c2CCN(c2cccc4cccc(C)c24)C3)C[C@@H]1CC#N
3. C=CC(=O)N1CCN(c2cc(C(=O)N[C@H](C)CN3CCOCC3)nc3c2CCN(c2cccc4cccc(C)c24)C3)CC1
Request: Thanks in advance: please rank these 3 entries by IC50, highest to lowest. Respond with an ordered listing of the labels, as requested.
Response: 3, 1, 2

* * *

# Experimental Target: Biotinylated KRAS G12C protein (Homo sapiens, UniProt P01116, C118S/C51S/C80L/G12C)
# Construct: 183 amino acids; biotin on K10
# Assay Explanation: SOS-catalyzed nucleotide exchange assay
# Type: biochemical
# Condition Info: apparent potency; preincubation time of 60 minutes prior to addition of SOS
Quantity Measured: IC50 (nM)

INSERT INTO assay_data (compound, quantity_measured, recorded_number) VALUES
  ('C=CC(=O)N1CCN(c2cc(C(=O)N[C@H]3CCCC[C@@H]3N)nc3c2CCN(c2cccc4cccc(C)c24)C3)CC1', 'IC50', 4900);

a. C=CC(=O)N1CCN(c2cc(C(=O)N3CCCCC3CN3CCCC3)nc3c2CCN(c2cccc4cccc(C)c24)C3)CC1 (racemic)
b. C=CC(=O)N1CCN(c2cc(C(=O)NC(CC)CN3CCCC3)nc3c2CCN(c2cccc4cccc(C)c24)C3)CC1 (racemic)
c. C=CC(=O)N1CCN(c2cc(C(=O)NCC3CCCNC3)nc3c2CCN(c2cccc4cccc(C)c24)C3)C[C@@H]1CC#N (mixture of isomers)
d. C=CC(=O)N1CCN(c2cc(C(=O)NC3(CC#N)CNC3)nc3c2CCN(c2cccc4cccc(C)c24)C3)C[C@@H]1CC#N
e. C=CC(=O)N1CCN(c2cc(C(=O)NC(C)CN(C)C)nc3c2CCN(c2cccc4ccccc24)C3)CC1 (racemic)
Request: Put the compounds in ascending order of IC50. Respond with an ordered listing of the labels, as requested.
Response: d, c, b, e, a
(d: 22 nM, c: 33 nM, b: 90 nM, e: 1690 nM, a: 8880 nM)

From: patent US20220402916A1
